// provenance: PubChem BioAssay (NCI)

Test system: SR leukemia
experiment: NCI-60 one-dose screen, 48 h (100 = growth as untreated, 0 = no growth, -100 = all killed)
runConditions: 10 µM
Compounds without any hit were thinned out: in the full panel of roughly 83,000, 20% have a hit.
valueKind: growth (%)

                                   compound  recordedresult
0  CC(=O)c1c(O)cc2c3c1OC(C)(C)C1CCC(C)(CC31)O2 (centres undefined)            86.7
1  COc1ccc(-c2nnc(SC/C(=N\O)c3ccccc3)o2)cc1             100
2                     CC(C)/C(=N/O)c1ccccc1             107
3  CNC(=O)c1cc(Oc2ccc(NC(=O)Nc3ccc(Cl)c(OC4CCCCC4)c3)c(F)c2)ccn1            42.2
4  CS(=O)(=O)Nc1ccc(Nc2c3ccccc3nc3cc(Cl)ccc23)cc1            7.92
5  COc1cc(-c2c(C#N)c(N)n3c(nc4ccccc43)c2C#N)cc(Br)c1OC           -1.43
6      COc1ccc2nc(NC(=O)Nc3c(F)cccc3F)sc2c1              92
7  COc1ccc(-c2cc(/C=C3\C(=O)Nc4cc(Cl)ccc43)[nH]n2)cc1            19.3
8        Cn1c(N)c(N=Cc2ccccc2)c(=O)n(C)c1=O            96.2

###

Tested on: HT29 colon
experiment: NCI-60 one-dose screen, 48 h
runConditions: 10 µM
The panel holds about 83,000 compounds, 20% with a hit somewhere; the sample as a whole holds those more often. The source made the active and inactive calls. Rule for the calls: active = growth percent below 10; inactive = the rest.
Labels: active, inactive

>>> df
                                    compound     group
 0  Cc1nn2c(/C=C3/C(=O)Nc4ccc(Cl)cc43)c(-c3ccccc3)nc2s1  inactive
 1  COc1ccc(-c2csc(-c3cc(Cl)cc(Cl)c3Cl)n2)cc1  inactive
 2       Cc1ccc(S(=O)(=O)N2CCc3ccccc3CC2)cc1  inactive
 3           Cc1ccc2c3c(cccc13)-c1ccccc1C2=O  inactive
 4     COc1ccc(-c2nnc(SCC(=O)c3ccccc3)o2)cc1  inactive
 5  COc1ccc(C2C=C(c3ccc(OC)c(OC)c3)N=C3SC=CN32)c(Br)c1 (centres undefined)  inactive
 6  CCN(CC)CC(O)Cc1ccc(OC)cc1 (centres undefined)  inactive
 7  COc1ccc(-c2[nH]ncc2-c2cc(OC)c(OC)c(OC)c2)cc1    active
 8    CCN(Cc1ccccc1)C1CCN(Cc2cc(Br)ccc2O)CC1  inactive
 9  CNC(=O)c1cc(Oc2ccc(NC(=O)Nc3ccc(Cl)c(OC4CCCCC4)c3)c(F)c2)ccn1  inactive
10   COc1ccc(Nc2nc(NCc3ccccc3)c3ccccc3n2)cc1  inactive
11  CN(C1c2ccccc2Oc2ccccc21)S(=O)(=O)c1cc(Cl)ccc1Cl  inactive
12  O=C(Nc1ccc(OCc2nnc(-c3ccccc3)o2)c(F)c1)Nc1ccc(Cl)c(Cl)c1  inactive
13  Nc1ccc(Sc2ccc3c4c2cccc4c(=O)n2c4ccccc4nc32)cc1  inactive
14  Cc1ccc([P+](Cc2ccc([N+](=O)[O-])cc2)(c2ccc(C)cc2)c2ccc(C)cc2)cc1  inactive
15  C[C@@H]1N=C(c2ccc(Br)cc2)Nc2nc3ccccn3c2C1=O  inactive
16  Cc1ccc(S(=O)(=O)Nc2cccc3[nH]c(C(F)(F)F)nc23)cc1    active
17  Cc1cc(O)c(C2=NN(c3ccc(S(N)(=O)=O)cc3)C(c3ccc(N(C)C)cc3)C2)c(C)c1Cl (centres undefined)  inactive
18  COc1cc(-c2c(C#N)c(N)n3c(nc4ccccc43)c2C#N)cc(Br)c1OC  inactive
19  Cc1cc(C)c2c(Nc3ncnc4c3sc3nc(C)cc(C)c34)n[nH]c2n1  inactive
20  COc1ccc(C2C=C(c3ccc(Cl)cc3)N=C3SC=CN32)c(Br)c1 (centres undefined)  inactive
21  c1ccc(COCC[P+](c2ccccc2)(c2ccccc2)c2ccccc2)cc1    active
22  O=C(NC1CCCC1)c1ccc(N2CCC(NCc3cccc(C(F)(F)F)c3)CC2)cc1  inactive
23                     Cc1ccc(C(=O)O)c(N)c1C  inactive
24  CCOC(=O)[C@@H]1[C@H](c2ccccc2)[C@H]([N+](=O)[O-])[C@H](c2cn(-c3ccccc3)nc2C)N1Cc1ccccc1  inactive
25   CN(C)CCCN(Cc1ccccc1O)C(=S)Nc1ccc(Cl)cc1  inactive
26         S=C(Cc1ccc(-c2ccccc2)cc1)N1CCOCC1  inactive
27  FC(F)(F)c1ccc(-c2nc(-c3nc4cc(Cl)c(Cl)cc4[nH]3)c3ccccn23)cc1  inactive
28  O=C(Nc1cccc(Cl)c1)OCC(COC(=O)Nc1cccc(Cl)c1)(COC(=O)Nc1cccc(Cl)c1)[N+](=O)[O-]  inactive

###

Tested on: TK-10 renal
experiment: NCI-60 one-dose screen, 48 h (100 = growth as untreated, 0 = no growth, -100 = all killed)
runConditions: 10 µM
This is part of a sample that, as a whole, favours compounds with a hit. Of some 83,000 tested, about 20% had one in any assay. The source made the active and inactive calls. The calls were made as follows: active = growth percent below 10; inactive = the rest.
valueKind: growth

>>> df
                                    compound       target    recordedresult
 0  COc1ccccc1CNCCCN1C(=O)c2ccc3c4c(ccc(c24)C1=O)C(=O)N(CCCNCCNCCCN)C3=O  TK-10 renal  60.6% (inactive)
 1  CCCCCCOc1ccc(/C=C/C(=O)c2ccc(B(O)O)cc2)cc1  TK-10 renal  85.2% (inactive)
 2  COc1cccc2c1C(=O)c1c(O)c3c(c(O)c1C2=O)C[C@@](O)(C(=O)COC(=O)c1ccccc1)C[C@@H]3OC1CC(N)C(O)C(C)O1 (some centres not stated)  TK-10 renal   -79.8% (active)
 3  CC(C)(C)CC(C)(C)c1ccc(O)c(Cc2ccc(Cl)cc2Cl)c1  TK-10 renal   -92.7% (active)
 4  CCOc1cc(Br)c(C(C)NC(=O)c2cccc(OC)c2)cc1OCC (configuration not stated)  TK-10 renal  77.8% (inactive)
 5        CCCc1ccnc(NS(=O)(=O)c2ccc(N)cc2)n1  TK-10 renal  93.4% (inactive)
 6  Cc1nnc2c3nnc(-c4ccc(Cl)cc4)n3c3ccccc3n12  TK-10 renal    92% (inactive)
 7  CC(=O)[C@H]1CC[C@H]2[C@@H]3CC[C@@H]4CC=C(C=O)C[C@]4(C)[C@H]3CC[C@]12C  TK-10 renal  85.2% (inactive)
 8  COc1cc(NS(C)(=O)=O)ccc1Nc1c2ccc(Cl)cc2nc2c(OC)cccc12  TK-10 renal   -55.3% (active)
 9                       CCCCC(CC#N)(CCC)CCC  TK-10 renal  92.7% (inactive)
10  CC(C)C(C)C(N)C(=O)O (configuration not stated)  TK-10 renal  95.4% (inactive)
11  COc1ccc(C(=O)/C=C/c2cc(-c3ccc(OC)c(OC)c3)n[nH]2)cc1OC  TK-10 renal   -20.7% (active)
12  COc1ccc(/C(=C/c2cc(OC)c(OC)cc2[N+](=O)[O-])C(=O)O)cc1  TK-10 renal   118% (inactive)
13  COc1ccc(-c2[nH]ncc2/C=C/c2cc(C(F)(F)F)[nH]c(=O)n2)cc1  TK-10 renal  94.8% (inactive)
14  O=C(C=P(c1ccccc1)(c1ccccc1)c1ccccc1)c1ccc(Br)cc1  TK-10 renal    95% (inactive)
15       Cc1cc(Nc2cccc(F)c2)nc(NCc2ccccc2)n1  TK-10 renal  35.7% (inactive)
16  O=C(c1ccccc1)C(Nc1ccccc1)c1ccccc1 (configuration not stated)  TK-10 renal  93.6% (inactive)
17  COc1cc(C2C=C(c3ccc(Cl)cc3)N=C3SC(C)=CN32)cc(OC)c1OC (configuration not stated)  TK-10 renal    71% (inactive)
18  C#Cc1ccc(-n2c(/C=C/c3cc(OC)c(OC)c(OC)c3)nc3ncccc3c2=O)cc1  TK-10 renal   112% (inactive)
19  c1ccc(OCCC[P+](c2ccccc2)(c2ccccc2)c2ccccc2)cc1  TK-10 renal  18.1% (inactive)
20  CCCCCC(CCC)COC(=O)c1ccc(OC)cc1 (configuration not stated)  TK-10 renal  95.6% (inactive)
21  Fc1cc(-c2ncc(-c3cc(F)c(F)c(F)c3)c(NC3CCCCCC3)n2)cc(F)c1F  TK-10 renal   152% (inactive)
22  Cc1cc(Cl)ccc1Nc1nc(C(F)(F)F)ccc1C(=O)N/N=C/c1ccccc1Cl  TK-10 renal    19% (inactive)
23                 CCCCCCCCCCCCCC[n+]1ccccc1  TK-10 renal   -70.4% (active)
24  CC(Oc1ccc(Cl)cc1)c1ccccc1 (configuration not stated)  TK-10 renal   106% (inactive)
25           Cc1[nH]nc2c(=S)[nH]c(=O)[nH]c12  TK-10 renal   108% (inactive)
26    Cc1ccc(S(=O)(=O)Oc2ccccc2-c2ccccc2)cc1  TK-10 renal  45.5% (inactive)
27  CCN(CC)CC(O)CNc1ccnc2cc(Cl)c(Cl)cc12 (configuration not stated)  TK-10 renal  95.2% (inactive)
28  CCOC(=O)CNC(=O)Nc1ccc(Oc2ccc(NC(=O)NCC(=O)OCC)cc2)cc1  TK-10 renal   114% (inactive)
29                           CC1(C)CNC(=O)N1  TK-10 renal  97.7% (inactive)
30  CCC(OC(=O)CC(C)C)c1ccccc1 (configuration not stated)  TK-10 renal  91.1% (inactive)
31  CC[C@@]1(C(N)=O)CC2C=CC1C2 (some centres not stated)  TK-10 renal   108% (inactive)
32                     O=C(O)CCCCSCCCCC(=O)O  TK-10 renal    92% (inactive)
33  Cn1cnc([N+](=O)[O-])c1/C=C1\Oc2ccc(Cl)cc2C1=O  TK-10 renal  98.2% (inactive)
34                   O=[N+]([O-])c1ccc(Br)o1  TK-10 renal  96.4% (inactive)
35  Cn1c([N+](=O)[O-])cnc1C=C1C(=O)c2ccccc2C1=O  TK-10 renal  48.8% (inactive)
36  COc1cccc2c1O/C(=C\c1ccc([N+](=O)[O-])s1)C2=O  TK-10 renal  73.6% (inactive)
37  O=C(CCc1ccccc1)N1CCN(C(=O)CCc2ccccc2)CC1  TK-10 renal   111% (inactive)
38  CNC(=O)c1cc(Oc2ccc(NC(=O)Nc3ccc(Cl)c(OC(C)C)c3)c(F)c2)ccn1  TK-10 renal  66.7% (inactive)
39  COc1cc(Nc2ccnc(N3CCN(c4ccnc5cc(Cl)ccc45)CC3)n2)cc(OC)c1  TK-10 renal   -4.71% (active)
40  COc1cc(/C=C/C(=O)c2cc(-c3ccccc3)ccc2O)cc(OC)c1OC  TK-10 renal   105% (inactive)
41  O=C(c1ccccc1)C(Sc1ccccc1)c1ccccc1 (configuration not stated)  TK-10 renal   101% (inactive)
